These measurements were taken from patent US20250282785A1.

TARGET OR TEST SYSTEM: Recombinant Human NF-Kappab-Inducing Kinase (NIK/MAP3K14) (Homo sapiens, UniProt Q99558)
Sequence (Q99558 whole entry): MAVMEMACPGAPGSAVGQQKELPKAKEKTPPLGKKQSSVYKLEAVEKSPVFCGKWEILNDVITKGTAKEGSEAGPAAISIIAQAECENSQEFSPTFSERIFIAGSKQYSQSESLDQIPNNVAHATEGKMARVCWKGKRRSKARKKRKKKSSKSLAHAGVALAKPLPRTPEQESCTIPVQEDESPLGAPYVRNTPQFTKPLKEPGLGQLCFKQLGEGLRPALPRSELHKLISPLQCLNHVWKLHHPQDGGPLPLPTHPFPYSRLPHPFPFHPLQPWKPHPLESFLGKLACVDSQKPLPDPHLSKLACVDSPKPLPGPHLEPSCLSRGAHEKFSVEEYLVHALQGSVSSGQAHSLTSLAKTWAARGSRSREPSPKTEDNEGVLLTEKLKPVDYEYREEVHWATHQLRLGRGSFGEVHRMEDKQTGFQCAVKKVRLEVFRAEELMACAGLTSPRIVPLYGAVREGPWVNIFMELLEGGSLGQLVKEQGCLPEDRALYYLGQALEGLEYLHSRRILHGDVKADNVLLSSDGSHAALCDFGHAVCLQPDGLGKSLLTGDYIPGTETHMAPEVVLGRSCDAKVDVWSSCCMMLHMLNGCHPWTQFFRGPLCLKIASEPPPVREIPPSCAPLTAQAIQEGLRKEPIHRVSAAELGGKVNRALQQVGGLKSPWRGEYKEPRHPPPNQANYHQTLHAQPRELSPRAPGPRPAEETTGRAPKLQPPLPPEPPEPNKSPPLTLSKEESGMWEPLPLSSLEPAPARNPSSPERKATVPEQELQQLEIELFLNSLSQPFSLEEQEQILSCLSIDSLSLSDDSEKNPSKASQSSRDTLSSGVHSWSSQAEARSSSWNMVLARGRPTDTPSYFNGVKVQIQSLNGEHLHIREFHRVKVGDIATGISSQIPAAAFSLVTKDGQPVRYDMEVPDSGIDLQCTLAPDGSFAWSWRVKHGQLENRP
TEST SUMMARY: Inhibition of auto-phosphorylation of recombinant human NIK/MAP3K14 (AlphaScreen)
Assay type: biochemical
CONDITION SUMMARY: NIK/MAP3K14 auto-phosphorylation, 5 microM ATP, 1 nM enzyme, 2 h at 25° C.; average of values; read-out: Assay 1 IC50
METRIC: IC50

{"columns": ["COMPOUND", "TARGET OR TEST SYSTEM", "IC50"],
 "data": [
  ["CN1CC[C@](O)(c2cc(-c3cccc(-c4nc5c(c(C(N)=O)n4)[C@H]4CC[C@@H](C5)O4)c3)no2)C1=O", "Recombinant Human NF-Kappab-Inducing Kinase (NIK/MAP3K14) (Homo sapiens, UniProt Q99558)", "> 501 nM"],
  ["[2H]C1([2H])N(C)C(=O)[C@](O)(c2cc(-c3cccc(-c4cc(C5CC5)c(N)c(C(N)=O)n4)c3)no2)C1([2H])[2H]", "Recombinant Human NF-Kappab-Inducing Kinase (NIK/MAP3K14) (Homo sapiens, UniProt Q99558)", "< 100 nM"],
  ["CN1CC[C@@](O)(c2cc(-c3cccc(-c4ccc5ncoc5c4)c3)no2)C1=O", "Recombinant Human NF-Kappab-Inducing Kinase (NIK/MAP3K14) (Homo sapiens, UniProt Q99558)", "> 501 nM"],
  ["CN1CC[C@](O)(c2cn(-c3cccc(-c4cccc(C(N)=O)n4)c3)nn2)C1=O", "Recombinant Human NF-Kappab-Inducing Kinase (NIK/MAP3K14) (Homo sapiens, UniProt Q99558)", "> 501 nM"],
  ["CN1CC[C@@](O)(c2cc(-c3ccnc(-c4ccc(N)c(C(N)=O)n4)c3)no2)C1=O", "Recombinant Human NF-Kappab-Inducing Kinase (NIK/MAP3K14) (Homo sapiens, UniProt Q99558)", "< 100 nM"],
  ["Cc1cc(N2CCC[C@@H](c3cc([C@]4(O)CCN(C)C4=O)on3)C2)nc2c(N)ncnc12 (single isomer, unassigned)", "Recombinant Human NF-Kappab-Inducing Kinase (NIK/MAP3K14) (Homo sapiens, UniProt Q99558)", "< 100 nM"]
]}

Entry CN1CC[C@@](O)(c2cc(-c3cccc(-c4ncc5cnn(C)c5n4)c3)no2)C1=O : reported IC50 = ?
100 to 500 nM
